# Test system: SF-539 CNS
# MEASUREMENT_DESCRIPTION: NCI tumour cell line growth inhibition, 48 h; in the data active = GI50 below about 0.43 µM; inactive = the rest
Labels: class 1 for active, class 0 for inactive

[
  {
    "COMPOUND": "CC12OC(C(=O)C13CC3)C1C(=O)c3c(O)ccc(O)c3C(=O)C12 (stereo unspecified)",
    "CLASS_ASSIGNMENT": "class 0"
  },
  {
    "COMPOUND": "CC(=O)c1c[nH]c2ccc(-c3ccnc(Nc4ccc(NC(=O)C5CCCC5)c(CN5CCOCC5)c4)n3)cc12",
    "CLASS_ASSIGNMENT": "class 1"
  },
  {
    "COMPOUND": "CCC[CH2][Sn]([CH2]CCC)([CH2]CCC)/[C](=C/[Si](C)(C)c1ccccc1)c1ccc2c(c1)OCO2",
    "CLASS_ASSIGNMENT": "class 0"
  },
  {
    "COMPOUND": "O=c1cc(-c2ccccc2)[nH]c2c1CCCC2",
    "CLASS_ASSIGNMENT": "class 0"
  },
  {
    "COMPOUND": "CN1CCC(c2c(O)cc(O)c3c(=O)cc(-c4ccccc4Cl)oc23)C(O)C1 (stereo unspecified)",
    "CLASS_ASSIGNMENT": "class 1"
  },
  {
    "COMPOUND": "O=C1NC(=O)C(=Cc2cn(Cc3ccccc3)c3ccccc23)C(=O)N1",
    "CLASS_ASSIGNMENT": "class 0"
  }
]

====

# Tested on: CCRF-CEM leukemia
# MEASUREMENT_DESCRIPTION: NCI tumour cell line growth inhibition, 48 h
// reported TGI for each item listed
EXPERIMENTAL_READOUT: TGI (µM)

[
  {
    "COMPOUND": "O=C(O)CSC1=NNC2(C(=O)N1)c1ccccc1-c1ccccc12",
    "CENSORING_SIGN": ">",
    "MEASURED_RESULT": 10
  },
  {
    "COMPOUND": "O=Nc1c(-c2c(O)[nH]c3ccc(I)cc23)[nH]c2ccccc12",
    "CENSORING_SIGN": "=",
    "MEASURED_RESULT": 5.07
  },
  {
    "COMPOUND": "Cc1ccc(SSCC(O)C(O)CSSc2ccc(C)cc2)cc1 (stereo not given)",
    "CENSORING_SIGN": "=",
    "MEASURED_RESULT": 4.08
  },
  {
    "COMPOUND": "FC(F)c1ncc(-c2ccc(C(F)(F)F)cc2)c(NC2CCCCCC2)n1",
    "CENSORING_SIGN": ">",
    "MEASURED_RESULT": 10
  },
  {
    "COMPOUND": "CCCCC#Cc1c(I)n(C2OC(CO[Si](C)(C)C(C)(C)C)C3OC(C)(C)OC32)c(=O)n(C(=O)c2ccccc2)c1=O (stereo not given)",
    "CENSORING_SIGN": "=",
    "MEASURED_RESULT": 33.4
  },
  {
    "COMPOUND": "O=C1NC(=O)C(c2cccc(Cl)c2)=C1Nc1ccc(Cl)c(C(=O)O)c1",
    "CENSORING_SIGN": ">",
    "MEASURED_RESULT": 25
  },
  {
    "COMPOUND": "CC/C=C/c1cc2c(cc1O)CCC1C2CC[C@@]2(C)C1CC[C@@H]2O (stereo not given in full)",
    "CENSORING_SIGN": "=",
    "MEASURED_RESULT": 14.8
  },
  {
    "COMPOUND": "CCOc1ccc2nc3nc(=O)[nH]c(C)c3c(NC(C)(CO)CO)c2c1",
    "CENSORING_SIGN": ">",
    "MEASURED_RESULT": 100
  },
  {
    "COMPOUND": "CCC[CH2][Sn]([CH2]CCC)([CH2]CCC)/[C](=C/[Si](C)(C)c1ccccc1)c1ccc2c(c1)OCO2",
    "CENSORING_SIGN": "=",
    "MEASURED_RESULT": 73.2
  },
  {
    "COMPOUND": "O=C1CC(c2ccsc2)n2cccc21 (stereo not given)",
    "CENSORING_SIGN": ">",
    "MEASURED_RESULT": 100
  }
]

====

// reported log10(TGI) for each item listed
# Test system: HL-60(TB) leukemia
# MEASUREMENT_DESCRIPTION: NCI tumour cell line growth inhibition, 48 h
EXPERIMENTAL_READOUT: log10(TGI) (log10 of the value in µM)

[
  {
    "MOLECULE": "Cc1ccc(S(=O)(=O)n2cc([C@@]3(O)C[C@H](CSC#N)OC3=O)c3ccccc32)cc1",
    "MEASURED_RESULT": 1.09
  },
  {
    "MOLECULE": "O=c1[nH]cc(N=Cc2cc(Cl)ccc2O)c(=O)[nH]1",
    "MEASURED_RESULT": 1.72
  },
  {
    "MOLECULE": "Cc1cc(C)nc(NS(=O)(=O)c2ccc(NNc3c4ccccc4nc4c(C(=O)Nc5ccc(S(=O)(=O)Nc6cc(C)on6)cc5)cccc34)cc2)n1",
    "MEASURED_RESULT": 1.91
  },
  {
    "MOLECULE": "CCC1=C(C[C@H]2NCCc3cc(OC)c(OC)cc32)C[C@H]2c3cc(OC)c(OC)cc3CCN2C1",
    "MEASURED_RESULT": -1.12
  },
  {
    "MOLECULE": "O=C1C=CC(=O)c2c1ccc1c3ccccc3n(Cc3ccccc3)c21",
    "MEASURED_RESULT": 1.18
  },
  {
    "MOLECULE": "COc1cc2nc(N3CCC[C@H](NC4=CC(=O)c5ccccc5C4=O)C3)nc(N)c2cc1OC",
    "MEASURED_RESULT": 0.61
  },
  {
    "MOLECULE": "CC(C)[C@H](C)/C=C/[C@@H](C)C1CC[C@H]2[C@@]34C=C[C@]5(C[C@@H](O)CC[C@]5(C)[C@H]3CC[C@]12C)OO4 (stereo not given in full)",
    "MEASURED_RESULT": 1.76
  },
  {
    "MOLECULE": "CN1CCN(Cc2ccc(NC(=O)c3[nH]ncc3Nc3ncnc4[nH]ccc34)cc2)CC1",
    "MEASURED_RESULT": -0.20
  },
  {
    "MOLECULE": "CC(C)(C)c1cc(OCc2nnc3sc(Cc4ccccc4)nn23)c(Cl)cc1OCc1nnc2sc(Cc3ccccc3)nn12",
    "MEASURED_RESULT": 1.77
  },
  {
    "MOLECULE": "CC1=C(CO)C(=O)O[C@@H]([C@@H](C)[C@H]2CC[C@H]3[C@@H]4C[C@H]5O[C@]56[C@@H](O)C=CC(=O)[C@]6(C)[C@H]4CC[C@]23C)C1",
    "MEASURED_RESULT": -0.09
  },
  {
    "MOLECULE": "O=C1C(Cl)=C(Cl)C(=O)N1c1ccc(Cl)c(Cl)c1Cl",
    "MEASURED_RESULT": 1.66
  },
  {
    "MOLECULE": "O=C1C=CC2(O[C@H](C3CCCCC3)[C@@H](C3CCCCC3)O2)C(SC(=O)c2ccccc2)C1 (stereo not given in full)",
    "MEASURED_RESULT": 0.87
  },
  {
    "MOLECULE": "CC(=O)c1c[nH]c2ccc(-c3ccnc(Nc4ccc(NC(=O)C5CCCC5)c(CN5CCOCC5)c4)n3)cc12",
    "MEASURED_RESULT": -1.14
  },
  {
    "MOLECULE": "CCN(CC)CCCNCc1cc(-c2ccccc2)nc2cc(Cl)ccc12",
    "MEASURED_RESULT": 0.62
  },
  {
    "MOLECULE": "N#C/C(=C/N1CCN(C(=O)c2ccco2)C1=S)C(=O)Nc1ccc(Cl)cc1",
    "MEASURED_RESULT": 1.46
  },
  {
    "MOLECULE": "CCOC(=O)c1cc2c3c(c(C(C)=O)c(OC)c2[nH]1)N(C(=O)CC)CC3",
    "MEASURED_RESULT": 1.67
  },
  {
    "MOLECULE": "Cc1ccc(S(=O)(=O)OCCC2CN(C(=O)OCc3ccccc3)C(C)(C)O2)cc1 (stereo not given)",
    "MEASURED_RESULT": 1.48
  },
  {
    "MOLECULE": "Cc1cc(=O)[nH]c(NNC(C#N)c2ccccc2O)n1 (stereo not given)",
    "MEASURED_RESULT": 1.70
  }
]
